- System: SW 1573
- experimental_details: relative viability (nuclei count vs DMSO), 5 days (fraction); higher = more cells survive
- experimental_conditions: first compound 8 µM
Listed next: entries and their corresponding relative viability.
Returns: the value as a bare number; no unit string appended.

Past entries and their recorded results:
Nc1cccc2c1CN(C1CCC(=O)NC1=O)C2=O (stereo unspecified) [Lenalidomide] + CCNC(=O)c1noc(-c2cc(C(C)C)c(O)cc2O)c1-c1ccc(CN2CCOCC2)cc1 [Luminespib] (partner 0.01 µM); 0.366
Nc1cccc2c1CN(C1CCC(=O)NC1=O)C2=O (stereo unspecified) [Lenalidomide] + N=C(N)NC(=N)NCCc1ccccc1 [Phenformin] (partner 250 µM); 0.345
Nc1cccc2c1CN(C1CCC(=O)NC1=O)C2=O (stereo unspecified) [Lenalidomide] + Nc1ncn([C@H]2C[C@H](O)[C@@H](CO)O2)c(=O)n1 [Decitabine] (partner 2 µM); 0.542
Nc1cccc2c1CN(C1CCC(=O)NC1=O)C2=O (stereo unspecified) [Lenalidomide] + Cc1nc(NC(=O)N2CCC[C@H]2C(N)=O)sc1-c1ccnc(C(C)(C)C(F)(F)F)c1 [Alpelisib] (partner 2 µM); 0.696
Nc1cccc2c1CN(C1CCC(=O)NC1=O)C2=O (stereo unspecified) [Lenalidomide] + Nc1nc2[nH]cc(CCc3ccc(C(=O)N[C@@H](CCC(=O)O)C(=O)O)cc3)c2c(=O)[nH]1 [Pemetrexed] (partner 0.2 µM); 0.812

QUERY: Suppose we examine the compound Nc1cccc2c1CN(C1CCC(=O)NC1=O)C2=O (stereo unspecified) [Lenalidomide] + CS(=O)(=O)CCNCc1ccc(-c2ccc3ncnc(Nc4ccc(OCc5cccc(F)c5)c(Cl)c4)c3c2)o1 [Lapatinib] (partner 2 µM) ; what relative viability value has been reported?
RESULT: 0.992

---

// relative viability lookup, one value per entry
- Tested on: NCI-H1395
- experimental_details: relative viability (nuclei count vs DMSO), 5 days (fraction); higher = more cells survive
- experimental_conditions: first compound 0.03162 µM
Just the number, please, no unit attached.

Cc1cn(-c2cc(NC(=O)c3ccc(C)c(Nc4nccc(-c5cccnc5)n4)c3)cc(C(F)(F)F)c2)cn1 [Nilotinib] + Cc1cc(Nc2cc(N3CCN(C)CC3)nc(Sc3ccc(NC(=O)C4CC4)cc3)n2)n[nH]1 [Tozasertib] (partner 0.1 µM); 0.612
Cc1cn(-c2cc(NC(=O)c3ccc(C)c(Nc4nccc(-c5cccnc5)n4)c3)cc(C(F)(F)F)c2)cn1 [Nilotinib] + Cc1nc(NC(=O)N2CCC[C@H]2C(N)=O)sc1-c1ccnc(C(C)(C)C(F)(F)F)c1 [Alpelisib] (partner 2 µM); 0.977
Cc1cn(-c2cc(NC(=O)c3ccc(C)c(Nc4nccc(-c5cccnc5)n4)c3)cc(C(F)(F)F)c2)cn1 [Nilotinib] + Nc1ncn([C@H]2C[C@H](O)[C@@H](CO)O2)c(=O)n1 [Decitabine] (partner 2 µM); 0.707

QUERY: Which relative viability value is on record for Cc1cn(-c2cc(NC(=O)c3ccc(C)c(Nc4nccc(-c5cccnc5)n4)c3)cc(C(F)(F)F)c2)cn1 [Nilotinib] + CC1(C)CCC(c2ccc(Cl)cc2)=C(CN2CCN(c3ccc(C(=O)NS(=O)(=O)c4ccc(N[C@H](CCN5CCOCC5)CSc5ccccc5)c(S(=O)(=O)C(F)(F)F)c4)cc3)CC2)C1 [Navitoclax] (partner 0.5 µM) ?
RESULT: 1.11
